Where do these numbers come from? They come from patent US9611278B2.

- tested-on: sGC α1/β1 heterodimer stably expressed in CHO-K1 cells (CHO-K1/sGC) (Homo sapiens, UniProt Q02108+Q02153)
- Construct: expressed in transfected cells
- Sequence (Q02108 whole entry): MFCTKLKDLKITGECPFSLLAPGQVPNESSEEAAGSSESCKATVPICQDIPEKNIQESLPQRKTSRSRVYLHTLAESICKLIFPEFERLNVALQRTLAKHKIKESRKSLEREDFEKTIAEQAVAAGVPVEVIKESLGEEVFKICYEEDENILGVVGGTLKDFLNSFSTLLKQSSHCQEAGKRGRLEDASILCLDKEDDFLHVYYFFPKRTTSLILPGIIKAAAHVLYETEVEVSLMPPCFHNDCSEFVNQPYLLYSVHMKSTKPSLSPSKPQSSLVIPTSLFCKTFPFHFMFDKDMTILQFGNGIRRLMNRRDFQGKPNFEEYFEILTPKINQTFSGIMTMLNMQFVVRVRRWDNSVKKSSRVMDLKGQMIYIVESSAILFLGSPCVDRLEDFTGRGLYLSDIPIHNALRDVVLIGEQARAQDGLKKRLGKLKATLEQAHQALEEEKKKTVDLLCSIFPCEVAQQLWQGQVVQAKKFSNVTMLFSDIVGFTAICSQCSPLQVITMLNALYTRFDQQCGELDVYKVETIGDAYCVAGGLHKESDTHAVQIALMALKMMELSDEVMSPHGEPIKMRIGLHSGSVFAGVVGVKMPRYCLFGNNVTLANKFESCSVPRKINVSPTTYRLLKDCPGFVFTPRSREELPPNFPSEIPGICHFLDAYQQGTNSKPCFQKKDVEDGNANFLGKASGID
- Sequence (Q02153 whole entry): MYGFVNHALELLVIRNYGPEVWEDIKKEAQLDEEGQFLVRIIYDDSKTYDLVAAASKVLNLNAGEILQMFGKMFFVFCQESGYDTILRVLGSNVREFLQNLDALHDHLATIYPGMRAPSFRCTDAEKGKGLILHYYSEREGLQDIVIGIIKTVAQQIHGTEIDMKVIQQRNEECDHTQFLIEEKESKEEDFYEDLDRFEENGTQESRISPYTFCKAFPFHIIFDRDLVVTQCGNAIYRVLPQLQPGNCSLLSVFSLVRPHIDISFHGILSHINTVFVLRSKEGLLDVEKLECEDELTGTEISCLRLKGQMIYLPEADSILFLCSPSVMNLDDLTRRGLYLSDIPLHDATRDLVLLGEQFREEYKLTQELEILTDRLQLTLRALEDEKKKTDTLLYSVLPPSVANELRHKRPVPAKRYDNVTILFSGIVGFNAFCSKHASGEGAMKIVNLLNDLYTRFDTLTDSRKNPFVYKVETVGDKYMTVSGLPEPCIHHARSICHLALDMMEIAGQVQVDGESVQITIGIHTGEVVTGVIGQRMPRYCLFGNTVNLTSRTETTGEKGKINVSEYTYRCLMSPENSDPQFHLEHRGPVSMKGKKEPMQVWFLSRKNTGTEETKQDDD
- assay-comment: Cell-based sGC Functional Assay (CASA Assay)
- test-parameters: inflection point of cGMP generation in CHO-K1/sGC cells, 4P fit; 1 hr at 37° C.; read-out: IP
The entries below are paired with their reported pEC50.
Conceptually, pEC50 converts a concentration in mol/L into minus its log10.

Observe how each entry below is paired with its result.
compound	measure	observed-result
[2H]C([2H])([2H])n1ncc2c(-c3nc(N)c4c(n3)NC(=O)C4(C)c3cn(CC4CC4)nn3)nc(CCC(F)(F)C(F)(F)F)nc21 (stereo not drawn)	pEC50	6.63
[2H]C([2H])([2H])n1ncc2c(-c3nc(N)c4c(n3)NC(=O)C4(c3nnc(C)o3)C3CC3)nc(CCC(F)(F)C(F)(F)F)nc21 (single isomer, unassigned) [Example 40B]	pEC50	6.53

Next:
[2H]C([2H])([2H])n1ncc2c(-c3nc(N)c4c(n3)NC(=O)C4(CC)c3nnc(C4CC4)o3)nc(CCC(F)(F)C(F)(F)F)nc21 (stereo not drawn) yielded pEC50 of 6.05

----------
- tested-on: sGC α1/β1 heterodimer stably expressed in CHO-K1 cells (CHO-K1/sGC) (Homo sapiens, UniProt Q02108+Q02153)
- Construct: expressed in transfected cells
- assay-comment: Cell-based sGC Functional Assay (CASA Assay)
- test-parameters: CHO-K1, activation as percentage of maximum cGMP production of Compound A (set to 100%); read-out: % Act.
measure: Emax (%)
Your answer is read as %, so omit the unit and give the number.

Observe how each entry below is paired with its result.
compound	Emax (%)
C=CCn1cc(C2(C)C(=O)Nc3nc(-c4nc(CCC(F)(F)C(F)(F)F)nc5c4cnn5C)nc(N)c32)nn1 (single isomer, unassigned) [Example 75]	139
Cn1ncc2c(-c3nc(N)c4c(n3)NC(=O)C4(c3nnc(C4(C)CC4)o3)C3CC3)nc(CCC(F)(F)C(F)(F)F)nc21 (stereo not shown) [Example 48]	112
Cn1ncc2c(-c3nc(N)c4c(n3)NC(=O)C4(C)c3ccccn3)nc(CCC(F)(F)C(F)(F)F)nc21 (stereo not shown) [Example 22]	103

[2H]C([2H])([2H])n1ncc2c(-c3nc(N)c4c(n3)NC(=O)C4(C)c3coc(C)n3)nc(CCC(F)(F)C(F)(F)F)nc21 (stereo not shown) [Example 11] yielded Emax of 126

[2H]C([2H])([2H])n1ncc2c(-c3nc(N)c4c(n3)NC(=O)C4(C)c3ccc(OC)cn3)nc(CCC(F)(F)C(F)(F)F)nc21 (stereo not shown) [Example 12] yielded Emax of 104

[2H]C([2H])([2H])n1ncc2c(-c3nc(N)c4c(n3)NC(=O)C4(C)c3ccnc(C(=O)OC)c3)nc(CCC(F)(F)C(F)(F)F)nc21 (stereo not shown) [Example 18] yielded Emax of 88

CCn1ncc2c(-c3nc(N)c4c(n3)NC(=O)C4(c3nnc(C4CC4)o3)C3CC3)nc(CCC(F)(F)C(F)(F)F)nc21 (stereo not shown) [Example 45] yielded Emax of 101

[2H]C([2H])([2H])n1ncc2c(-c3nc(N)c4c(n3)NC(=O)C4(c3nnc(C4CCC4)o3)C3CC3)nc(CCC(F)(F)C(F)(F)F)nc21 (stereo not shown) [Example 46] yielded Emax of 97

Cn1ncc2c(-c3nc(N)c4c(n3)NC(=O)C4(C)c3ccccn3)nc(CCCC(F)(F)F)nc21 (stereo not shown) [Example 21] yielded Emax of 111

Cn1ncc2c(-c3nc(N)c4c(n3)NC(=O)C4(c3nnc(C4CC4)o3)C3CC3)nc(CC3CC(F)(F)C3)nc21 (stereo not shown) [Example 51] yielded Emax of 154

[2H]C([2H])([2H])n1cc(C2(C)C(=O)Nc3nc(-c4nc(CCC(F)(F)C(F)(F)F)nc5c4cnn5C)nc(N)c32)nn1 (single isomer, unassigned) [Example 77] yielded Emax of 157
